The measurements presented in this section are drawn from the supplement of paper PMC10567573.

B1: RSPH3 (parent)
chain: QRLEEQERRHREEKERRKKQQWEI

- Variants of: B1
- experimentalProtocol: protein stability index of a GFP-peptide fusion (GPS, HEK-293T) (PSI 1-6); higher = more stable;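 also: lentivirally expressed fusions sorted by FACS into six bins by GFP to DsRed ratio, PSI derived from sequencing read proportions per bin multiplied by bin number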
- assayConditions: c terminus: a fixed tail appended
We begin with a simple list: items and their reported protein stability index.
reportedProperty: protein stability index

>>> quantitativereadout("R17Y")
4.96
>>> quantitativereadout("E13G")
4.55
>>> quantitativereadout("I24Q")
4.39
>>> quantitativereadout("R17G")
4.83
>>> quantitativereadout("E13V")
4.14
